Target or system human RORγt (Ligand Binding Domain) (Homo sapiens, UniProt P51449); recorded quantity pIC50.
pIC50: −log10 of the molar value.

>  <Compound>
NC(=O)Cc1ccc(CNc2ncnc(N(Cc3ccccc3)C3CC3)c2F)cc1

>  <pIC50>
> 6.30

$$$$
>  <Compound>
Cc1nc(C)c(C(C)N(C)c2ncnc(NCc3ccc(CC(N)=O)cc3)c2F)s1 (centres unmarked)

>  <pIC50>
> 6.30

$$$$

Ask | API: value(readout= pIC50, system= human RORγt (Ligand Binding Domain) (Homo sapiens, UniProt P51449), query= COC1(CNc2ncnc(N(Cc3ccc(C(F)(F)F)cc3)C3CC3)c2F)CCOCC1 )
Reply | > 6.30

Ask | API: value(readout= pIC50, system= human RORγt (Ligand Binding Domain) (Homo sapiens, UniProt P51449), query= CN(Cc1ccc(-n2cccn2)cc1)c1ncnc(NCc2ccc(S(N)(=O)=O)cc2)c1F )
Reply | > 5.00

Ask | API: value(readout= pIC50, system= human RORγt (Ligand Binding Domain) (Homo sapiens, UniProt P51449), query= Cc1cc(CN(c2ncnc(NCC3CCN(S(C)(=O)=O)CC3)c2F)C2CCCCC2)n(C)n1 )
Reply | > 5.00

Ask | API: value(readout= pIC50, system= human RORγt (Ligand Binding Domain) (Homo sapiens, UniProt P51449), query= NC(=O)Cc1ccc(CNc2ncnc3c2ccn3Cc2ccc(C(F)(F)F)cc2)cc1 )
Reply | > 6.00

Ask | API: value(readout= pIC50, system= human RORγt (Ligand Binding Domain) (Homo sapiens, UniProt P51449), query= CN(Cc1cccc(-n2cccn2)c1)c1ncnc(NCC2CCOCC2)c1F )
Reply | > 5.70

Ask | API: value(readout= pIC50, system= human RORγt (Ligand Binding Domain) (Homo sapiens, UniProt P51449), query= O=C(O)CNC(=O)CC1(CNc2ncnc(N(Cc3ccc(C(F)(F)F)cc3)C3CC3)c2F)CCOCC1 )
Reply | > 5.70

###

target: human RORγt (Ligand Binding Domain) (Homo sapiens, UniProt P51449)
Sequence (P51449 269-508 limits assumed): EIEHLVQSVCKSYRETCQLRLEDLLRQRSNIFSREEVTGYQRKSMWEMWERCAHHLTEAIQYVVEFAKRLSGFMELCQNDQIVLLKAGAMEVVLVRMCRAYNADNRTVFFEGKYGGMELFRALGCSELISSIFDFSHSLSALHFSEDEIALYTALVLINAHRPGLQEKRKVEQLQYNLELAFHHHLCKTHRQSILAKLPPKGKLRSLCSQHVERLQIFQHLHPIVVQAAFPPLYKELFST
Catalogue of IC50 readings, one per entry.

Below, each entry is followed by its recorded IC50 result.
>  <Compound>
Fc1c(NCc2ccsc2)ncnc1N(Cc1ccc(C(F)(F)F)cc1)C1CC1

>  <Result Type>
IC50

>  <Endpoint Result>
< 1 µM

$$$$
>  <Compound>
CS(=O)(=O)NCC1(CNc2ncnc(N(Cc3ccc(C(F)(F)F)cc3)C3CC3)c2F)CCOCC1

>  <Result Type>
IC50

>  <Endpoint Result>
< 0.5 µM

$$$$
>  <Compound>
O=S(=O)(N[C@H]1CC[C@H](CNc2ncnc(N(Cc3ccc(C(F)(F)F)cc3)C3CC3)c2F)CC1)C(F)(F)F

>  <Result Type>
IC50

>  <Endpoint Result>
< 0.5 µM

$$$$
>  <Compound>
CN(Cc1ccc(-n2cccn2)cc1)c1ncnc(NCc2ccc(CC(N)=O)cc2)c1F

>  <Result Type>
IC50

>  <Endpoint Result>
< 0.5 µM

$$$$
>  <Compound>
Cc1cnc(CNc2ncnc(N(Cc3ccc(C(F)(F)F)cc3)C3CC3)c2F)cn1

>  <Result Type>
IC50

>  <Endpoint Result>
< 0.5 µM

$$$$

Ask | API: value(readout= IC50, system= human RORγt (Ligand Binding Domain) (Homo sapiens, UniProt P51449), query= CS(=O)(=O)N1CCC2(CC2Nc2ncnc(N(Cc3ccc(C(F)(F)F)cc3)C3CC3)c2F)C1 (stereo not shown) )
Reply | < 2 µM

Ask | API: value(readout= IC50, system= human RORγt (Ligand Binding Domain) (Homo sapiens, UniProt P51449), query= NC(=O)Cc1ccc(CNc2ncnc(N(Cc3cccc(-n4cncn4)c3)C3CC3)c2F)cc1 )
Reply | < 0.5 µM

Ask | API: value(readout= IC50, system= human RORγt (Ligand Binding Domain) (Homo sapiens, UniProt P51449), query= N#CCc1ccc(CNc2ncnc(N(Cc3ccc(C(F)(F)F)cc3)C3CC3)c2F)cc1 )
Reply | < 0.5 µM

Ask | API: value(readout= IC50, system= human RORγt (Ligand Binding Domain) (Homo sapiens, UniProt P51449), query= CN1CCC(NC(=O)CC2(CNc3ncnc(N(Cc4ccc(C(F)(F)F)cc4)C4CC4)c3F)CCOCC2)C1 (stereo not shown) )
Reply | < 10 µM

Ask | API: value(readout= IC50, system= human RORγt (Ligand Binding Domain) (Homo sapiens, UniProt P51449), query= CS(=O)(=O)N1CCC2(CC1)CC2Nc1ncnc(N(Cc2ccc(C(F)(F)F)cc2)C2CC2)c1F (stereo not shown) )
Reply | < 0.5 µM

Ask | API: value(readout= IC50, system= human RORγt (Ligand Binding Domain) (Homo sapiens, UniProt P51449), query= CCN(Cc1cccc2c1OCO2)c1ncnc(NCc2ccc(CC(N)=O)cc2)c1F )
Reply | < 0.5 µM

Ask | API: value(readout= IC50, system= human RORγt (Ligand Binding Domain) (Homo sapiens, UniProt P51449), query= NC(=O)Cc1ccc(CNc2ncnc(N(Cc3ccc4c(c3)OCC(=O)N4)C3CC3)c2F)cc1 )
Reply | < 0.5 µM

Ask | API: value(readout= IC50, system= human RORγt (Ligand Binding Domain) (Homo sapiens, UniProt P51449), query= CS(=O)(=O)Nc1ccc(CNc2ncnc(N(Cc3ccc(C(F)(F)F)cc3)C3CC3)c2F)cc1 )
Reply | < 0.5 µM
